Answer each item with its documented Ki.
target: Sigma non-opioid intracellular receptor 1 (Homo sapiens); assay: PDSP Secondary Binding target: SIGMAR1 - Compounds are tested at 10 uM concentration, plate are incubated at room temperature in the dark for 90 minutes. Reaction are stopped by vacuum filtration onto 0.3% polyethyleneimine soaked filter mats using Filtermate harvester. Scintillation cocktail is then melted onto microwave-dried filters on a hot plate and the radio activity is counted in Microbia counter.
Sequence (Q99720 whole entry): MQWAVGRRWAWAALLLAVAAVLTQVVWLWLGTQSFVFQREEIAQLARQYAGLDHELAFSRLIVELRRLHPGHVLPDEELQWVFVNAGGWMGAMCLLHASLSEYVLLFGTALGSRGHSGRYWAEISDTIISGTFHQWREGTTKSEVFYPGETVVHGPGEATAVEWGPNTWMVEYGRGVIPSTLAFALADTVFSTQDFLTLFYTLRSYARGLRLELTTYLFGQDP
Counter-ions that a name gives are not always drawn.
Provide only the numeric value, understood in nM.

# Ki of N#Cc1c(N)nc(SCC(N)=O)c(C#N)c1-c1ccc(OCC2CC2)cc1 = 1000

# Ki of C[C@@H](NCCc1ccc(O)cc1)[C@@H](O)c1ccc(O)cc1 (relative stereo) = 587

# Ki of COc1ccc2cc(S(=O)(=O)N[C@H](CC(=O)N[C@H](Cc3ccc(CN4[C@H](C)CCC[C@@H]4C)cc3)C(=O)N(C)C(C)C)c3ccc4c(c3)OCO4)ccc2c1 = 495

# Ki of OC[C@H]1O[C@@H](n2cnc3c(NC4CCCC4)ncnc32)[C@H](O)[C@@H]1O [N6-CYCLOPENTYLADENOSINE] = 2610

# Ki of CC(C)NCC(O)COc1ccc(CCOCC2CC2)cc1 (stereo not drawn) [BETAXOLOL HYDROCHLORIDE] = 248

# Ki of Cc1c(P(=S)(c2ccccc2)c2ccccc2)n2ccccc2[n+]1C/C=C/c1ccccc1 = 816

# Ki of O=S1(=O)c2cccc3cccc(c23)N1CCCN1CCN(c2ccc(F)cc2)CC1 [FANANSERIN] = 696

# Ki of CNc1nc(NCc2ccc(NS(C)(=O)=O)cc2Cl)cc(-c2ccccn2)n1 = 365

# Ki of Clc1ccc(CCCOCCCN2CCCCC2)cc1 [PITOLISANT HYDROCHLORIDE] = 0.904

# Ki of COc1cc2nc(N3CCN(C(=O)c4ccco4)CC3)nc(N)c2cc1OC [PRAZOSIN HYDROCHLORIDE] = 2970

# Ki of O=C(O)C1CN(Cc2ccc(OCc3ccc(Cl)c(Cl)c3)cc2)C1 = 488

# Ki of COC(=O)C1=C(C)NC(C)=C(C(=O)OCCCN2CCC(c3ccccc3)(c3ccccc3)CC2)[C@H]1c1cccc([N+](=O)[O-])c1 [NIGULDIPINE] = 320

# Ki of NCCc1cn(S(=O)(=O)c2c(Cl)nc3sccn23)c2ccccc12 = 1320

# Ki of c1ccc(N2CCN(Cc3nc4ccccc4[nH]3)CC2)nc1 = 2260

# Ki of COC(=O)[C@H]1[C@H]2C[C@H]3c4[nH]c5ccccc5c4CCN3C[C@H]2CC[C@@H]1O [RAUWOLSCINE HYDROCHLORIDE] = 2780

# Ki of CCCCN(CCCC)C(=O)CN1C[C@@H](c2ccc3c(c2)OCO3)[C@H](C(=O)O)[C@H]1c1ccc(OC)cc1 = 2810

# Ki of CN1CCCC(n2nc(Cc3ccc(Cl)cc3)c3ccccc3c2=O)CC1 (stereo not drawn) [AZELASTINE HYDROCHLORIDE] = 150

# Ki of COc1ccc(NS(=O)(=O)c2sc3ccc(Cl)cc3c2C)cc1N1CCNCC1 = 598

###

Counter-ions that a name gives are not always drawn.
Endpoint label: pKi
# pKi = -log10(concentration in molar units)

CCCCCNC(=N)N/N=C/c1c[nH]c2ccc(OC)cc12 [TEGASEROD MALEATE] tested on 5-hydroxytryptamine receptor 6 (Homo sapiens, UniProt P50406) gave pKi: 6.25

CN1CCC(=C2c3ccccc3CC(=O)c3sccc32)CC1 [KETOTIFEN FUMARATE] tested on 5-hydroxytryptamine receptor 6 (Homo sapiens, UniProt P50406) gave pKi: 6.08

CC(C)NCC(O)COc1cccc2ccccc12 (stereo not given) [PROPRANOLOL HYDROCHLORIDE] tested on 5-hydroxytryptamine receptor 6 (Homo sapiens, UniProt P50406) gave pKi: 6.27

CN(C)C(=O)N[C@H]1CC[C@H](CCN2CCN(c3cccc(Cl)c3Cl)CC2)CC1 [CARIPRAZINE HYDROCHLORIDE] tested on 5-hydroxytryptamine receptor 6 (Homo sapiens, UniProt P50406) gave pKi: 5.89

COc1cccc([C@@H](C)NCCCc2ccccc2Cl)c1 [TECALCET HYDROCHLORIDE] tested on 5-hydroxytryptamine receptor 6 (Homo sapiens, UniProt P50406) gave pKi: 5.64

O=c1ccc2ccc(OCCCCN3CCN(c4cccc5sccc45)CC3)cc2[nH]1 [BREXPIPRAZOLE] tested on 5-hydroxytryptamine receptor 6 (Homo sapiens, UniProt P50406) gave pKi: 6.51

CN1C[C@H](C(=O)N[C@]2(C)O[C@@]3(O)[C@@H]4CCCN4C(=O)[C@H](Cc4ccccc4)N3C2=O)C[C@@H]2c3cccc4[nH]cc(c34)C[C@H]21 [DIHYDROERGOTAMINE MESYLATE] tested on 5-hydroxytryptamine receptor 6 (Homo sapiens, UniProt P50406) gave pKi: 6.65

CN1CCN(c2ccc(Nc3c4ccccc4nc4ccccc34)cc2)CC1 tested on 5-hydroxytryptamine receptor 6 (Homo sapiens, UniProt P50406) gave pKi: 6.42

Cc1ccc2c(c1)c1c(n2CCc2ccc(C)nc2)CCN(C)C1 [LATREPIRDINE] tested on 5-hydroxytryptamine receptor 6 (Homo sapiens, UniProt P50406) gave pKi: 6.84

###

Answer each item with its documented pKi.
biological target: Sigma intracellular receptor 2 (Homo sapiens, UniProt Q5BJF2); test: PDSP Secondary Binding target: TMEM97 - Compounds are tested at 10 uM concentration, plate are incubated at room temperature in the dark for 90 minutes. Reaction are stopped by vacuum filtration onto 0.3% polyethyleneimine soaked filter mats using Filtermate harvester. Scintillation cocktail is then melted onto microwave-dried filters on a hot plate and the radio activity is counted in Microbia counter.
Sequence (Q5BJF2 whole entry): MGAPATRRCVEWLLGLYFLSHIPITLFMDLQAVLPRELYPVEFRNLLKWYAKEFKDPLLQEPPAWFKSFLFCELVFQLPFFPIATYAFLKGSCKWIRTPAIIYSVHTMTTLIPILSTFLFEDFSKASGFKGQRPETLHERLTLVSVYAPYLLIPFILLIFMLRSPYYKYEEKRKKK
# pKi = -log10(concentration in molar units)

# pKi of S=C(NCCCc1c[nH]cn1)NCCCN(Cc1ccc(Cl)c(Cl)c1)c1ccc(Br)cn1 = 6.81

# pKi of Cc1cc(NC(=O)NCCN2CCC(O)(Cc3ccccc3)CC2)c2ccccc2n1 [PALOSURAN] = 6.02

# pKi of COc1cc(-n2cnc3cc(-c4ccc(Cl)cc4)sc3c2=O)ccc1OCCN1CCCC1 = 6.73

# pKi of O=C(Cc1ccc(Cl)c(Cl)c1)N1CCCC[C@H]1CN1CCCC1 = 7.43

# pKi of OCc1cc(C(O)CNCCCCCCOCCCCc2ccccc2)ccc1O (stereo not given) [SALMETEROL] = 7.49

###

target: 5-hydroxytryptamine receptor 7 (Homo sapiens)
Sequence (P34969 whole entry): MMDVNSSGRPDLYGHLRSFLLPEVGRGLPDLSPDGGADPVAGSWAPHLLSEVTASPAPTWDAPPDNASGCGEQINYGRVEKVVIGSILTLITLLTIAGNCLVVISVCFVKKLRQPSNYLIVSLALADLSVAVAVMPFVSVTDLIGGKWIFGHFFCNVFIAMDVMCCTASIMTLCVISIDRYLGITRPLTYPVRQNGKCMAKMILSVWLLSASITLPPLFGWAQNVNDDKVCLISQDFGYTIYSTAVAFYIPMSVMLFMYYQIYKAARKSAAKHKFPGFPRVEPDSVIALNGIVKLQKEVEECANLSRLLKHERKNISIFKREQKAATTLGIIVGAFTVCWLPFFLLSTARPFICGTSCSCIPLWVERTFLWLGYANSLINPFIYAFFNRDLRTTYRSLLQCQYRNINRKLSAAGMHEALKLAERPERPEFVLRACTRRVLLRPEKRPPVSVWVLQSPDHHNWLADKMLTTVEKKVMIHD
Where a name gives a salt, the structure may show the parent alone.
Answer each item with its documented pKi.
# pKi = -log10(concentration in molar units)

# pKi of Cc1nc2sccn2c(=O)c1CCN1CCC(=C(c2ccc(F)cc2)c2ccc(F)cc2)CC1 = 7.33

# pKi of COC(=O)[C@H]1[C@H]2C[C@H]3c4[nH]c5ccccc5c4CCN3C[C@H]2CC[C@@H]1O [RAUWOLSCINE HYDROCHLORIDE] = 6.48

# pKi of CN1CCCC(n2nc(Cc3ccc(Cl)cc3)c3ccccc3c2=O)CC1 (centres undefined) [AZELASTINE HYDROCHLORIDE] = 6.41

# pKi of CN1CCC(C(=O)c2cccc(NC(=O)c3c(F)cc(F)cc3F)n2)CC1 = 5.27

# pKi of N#Cc1ccc2[nH]cc(CCCCN3CCN(c4ccc5oc(C(N)=O)cc5c4)CC3)c2c1 [VILAZODONE HYDROCHLORIDE] = 6.10

# pKi of Cc1nn(C)c(C)c1-c1cccc2c1CC[C@H](N(C)C)C2 = 8.64

# pKi of Brc1c(NC2=NCCN2)ccc2nccnc12 = 5.96

# pKi of Clc1cccc(Cl)c1N=C1NCCN1 [CLONIDINE HYDROCHLORIDE] = 6.06

# pKi of Cc1cc(C)cc(-c2cnc3cc(Cl)c(-c4cccc(O)c4)cc3c2OCCCN)c1 = 5.66

###

target: 5-hydroxytryptamine receptor 2A (Homo sapiens)
Sequence (P28223 whole entry): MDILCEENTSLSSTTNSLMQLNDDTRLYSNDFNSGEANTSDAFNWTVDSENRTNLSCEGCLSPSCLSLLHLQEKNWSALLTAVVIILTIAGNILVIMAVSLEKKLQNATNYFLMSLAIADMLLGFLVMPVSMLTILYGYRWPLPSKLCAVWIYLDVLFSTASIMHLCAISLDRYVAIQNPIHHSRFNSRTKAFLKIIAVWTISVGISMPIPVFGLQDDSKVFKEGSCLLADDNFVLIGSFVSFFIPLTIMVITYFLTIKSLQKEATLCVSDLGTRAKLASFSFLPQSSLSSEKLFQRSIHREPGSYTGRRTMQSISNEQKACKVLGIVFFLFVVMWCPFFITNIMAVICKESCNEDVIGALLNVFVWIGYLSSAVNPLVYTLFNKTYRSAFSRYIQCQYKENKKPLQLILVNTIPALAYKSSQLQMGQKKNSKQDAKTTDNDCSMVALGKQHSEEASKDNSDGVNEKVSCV
pKi: −log10 of the molar value. Counter-ions that a name gives are not always drawn.
Everything with pKi lower than 6 is 0; everything else, including exactly 6, is 1.

Input: Hi team, for CN1C2CCC1CC(OC(c1ccc(F)cc1)c1ccc(F)cc1)C2 (stereo not drawn) , is the recorded pKi at or above 6?
Output: 1

Input: Hi team, for Clc1cccc(COc2cncc(N3CCNCC3)n2)c1 , is the recorded pKi at or above 6?
Output: 1

Input: Hi team, for Cc1c(P(=S)(c2ccccc2)c2ccccc2)n2ccccc2[n+]1C/C=C/c1ccccc1 , is the recorded pKi at or above 6?
Output: 0

Input: Hi team, for COc1ccc(NC(=O)c2ccc(-c3ccc(-c4noc(C)n4)cc3C)cc2)cc1OCCN(C)C , is the recorded pKi at or above 6?
Output: 1

Input: Hi team, for CC[C@@H]1CN2C(=O)N(C)c3nc(-c4ccccc4)[nH]c3C2=N1 , is the recorded pKi at or above 6?
Output: 0

Input: Hi team, for NCCc1cn(S(=O)(=O)c2c(Cl)nc3sccn23)c2ccccc12 , is the recorded pKi at or above 6?
Output: 1

Input: Hi team, for Cc1cc(NC(=O)NCCN2CCC(O)(Cc3ccccc3)CC2)c2ccccc2n1 , is the recorded pKi at or above 6?
Output: 0

Input: Hi team, for Cc1cc(C)cc(-c2cnc3cc(Cl)c(-c4cccc(O)c4)cc3c2OCCCN)c1 , is the recorded pKi at or above 6?
Output: 0

Input: Hi team, for CN1CCCC(n2nc(Cc3ccc(Cl)cc3)c3ccccc3c2=O)CC1 (stereo not drawn) [AZELASTINE HYDROCHLORIDE] , is the recorded pKi at or above 6?
Output: 1

Input: Hi team, for COc1cccc([C@@H](C)NCCCc2ccccc2Cl)c1 [TECALCET HYDROCHLORIDE] , is the recorded pKi at or above 6?
Output: 1

Input: Hi team, for Cc1cccc(NC(=O)N[C@@H]2N=C(c3ccccc3)c3ccccc3N(C)C2=O)c1 , is the recorded pKi at or above 6?
Output: 0

Input: Hi team, for Cc1nc(-c2ccc(-c3ccc(C(=O)N4CCc5cc6c(cc54)C4(CCN(C)CC4)CO6)cc3)c(C)c2)no1 , is the recorded pKi at or above 6?
Output: 0

Input: Hi team, for CCCCCNC(=N)N/N=C/c1c[nH]c2ccc(OC)cc12 [TEGASEROD MALEATE] , is the recorded pKi at or above 6?
Output: 1

Input: Hi team, for C/C(=N\NC(=O)[C@@H]1C(=O)NC[C@H]1c1ccccc1)c1cccc(Br)c1 , is the recorded pKi at or above 6?
Output: 0

Input: Hi team, for CCCCC#Cc1nc(NC)c2ncn([C@@H]3O[C@H](CO)[C@@H](O)[C@H]3O)c2n1 , is the recorded pKi at or above 6?
Output: 0
